Measured normalized RNA/DNA level with ligand (log10), listed per entry.
B1: library; a variant is named by its letters at N, in order (parent)
chain: GCUGUCACCGAGAAACUGUGAAGUAUAUCUUAAACCUGGGCACUUAAAAGAUAUAUGGAGUUAGUAGUGCAACCUGCUCGGUCUGAUGAGUCCNNNNNNGGACGAAACAGC

# Variants of: B1
# test_description: normalized RNA/DNA level with ligand (relative to sTRSVctl = 100) (log10 (% of sTRSVctl)); HEK293T; ligand: cyclic di-GMP (c-di-GMP-II aptamer); ligand concentration (+) RNA-Seq: 1 mM; higher = less ribozyme self-cleavage, higher mRNA level
# assay_setup: reporter: mCherry (pCS4076), ligand present: yes
Just the number, please, no unit after it.

AAUGAC | 1.79
CAUGAU | 1.73
UUCAUA | 1.82
AGACAG | 1.75

Qu. Give me measured normalized RNA/DNA level with ligand (log10), please, for this variant: `GUUUCG`
Ans. 1.85

Qu. Give me measured normalized RNA/DNA level with ligand (log10), please, for this variant: `GCUCCU`
Ans. 1.85

The measured values listed here are drawn from the supplement of paper PMC6757056.
